tested on: Caco-2 cells; assay: MTT cell viability assay, Caco-2; assay type: cell-based; conditions: Homo sapiens, 72 h incubation, mean ± SD
Listing of entries alongside the reported pIC50.
pIC50 (log units): -log10 of the concentration in mol/L.

These solved cases illustrate the format of a correct answer.
{"smi": "CC(=O)Oc1c(C(C)C)cc2c(c1OC(C)=O)[C@@]1(NC(=O)NCCc3cccc(Cl)c3)CCCC(C)(C)[C@@H]1CC2", "result-number": 5.10}
{"smi": "CC(=O)Oc1c(C(C)C)cc2c(c1OC(C)=O)[C@@]1(NC(=O)NCCc3ccccc3)CCCC(C)(C)[C@@H]1CC2", "result-number": 4.96}
{"smi": "CC(C)c1cc2c(c(O)c1O)[C@@]1(C(=O)O)CCCC(C)(C)[C@@H]1CC2", "result-number": 4.47}

If you can, please state the reported pIC50 value of CC(=O)Oc1c(C(C)C)cc2c(c1OC(C)=O)[C@@]1(NC(=O)NCCCN(C)c3ccccc3)CCCC(C)(C)[C@@H]1CC2 .
5.02
